targetSystem: T1, human DDR2 ECD (human, UniProt Q16832 22-399)
T1 construct: extracellular domain; also called DDR2 ECD protein
T1 sequence (looked up): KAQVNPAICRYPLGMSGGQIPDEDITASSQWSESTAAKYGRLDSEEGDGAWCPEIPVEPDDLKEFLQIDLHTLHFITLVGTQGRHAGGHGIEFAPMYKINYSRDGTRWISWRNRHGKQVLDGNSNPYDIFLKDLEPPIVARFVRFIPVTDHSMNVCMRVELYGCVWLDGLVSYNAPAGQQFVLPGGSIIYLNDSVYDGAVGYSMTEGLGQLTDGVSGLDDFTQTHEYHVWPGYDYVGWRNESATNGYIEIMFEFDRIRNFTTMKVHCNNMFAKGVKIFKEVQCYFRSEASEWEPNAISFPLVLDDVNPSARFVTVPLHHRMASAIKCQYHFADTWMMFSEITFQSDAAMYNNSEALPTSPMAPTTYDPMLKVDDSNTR
assayInfo: ELISA, DDR2 ECD coated, antibody at 1 ug/ml, HRP anti-rabbit detection
quantityName: binding result

1. DDR1-34 (antibody, V domains shown, Rabbit variable domains; Detected with anti-rabbit HRP antibody in the DDR2 ELISA; also called DDR1-34K/DDR1-34H) VH: QSVKESGGGLVKPEGSLTLTCKASGFDLSSYYYMCWVRQAPGKGLEWIACIYTSSGATWYANWAKGRFTISKTSSTTVTLQMTALTAADTATYFCARGGWCDFNLWGPGTLVTISS VL: ELDLTQTPASVSAAVGGTVTISCQSSENLYKDNYLAWYQQKPGQPPKLLIYGASNLASGVPSRFKGSGSGTQFTLTISDLECDDAATYYCAGGYDSVVDFGGGTEVVVK    binds

Data origin, for the record: patent US20230235078A1
